molecular target: BRAF V600E (Homo sapiens, UniProt P15056, V600E); test: HiBiT cellular BRAF^V600E degradation assay; assay type: cell-based; conditions: A375.10 cells, 24 h; concentration at which 50% of total cellular BRAF^V600E is degraded
Sequence (P15056 whole entry V600E): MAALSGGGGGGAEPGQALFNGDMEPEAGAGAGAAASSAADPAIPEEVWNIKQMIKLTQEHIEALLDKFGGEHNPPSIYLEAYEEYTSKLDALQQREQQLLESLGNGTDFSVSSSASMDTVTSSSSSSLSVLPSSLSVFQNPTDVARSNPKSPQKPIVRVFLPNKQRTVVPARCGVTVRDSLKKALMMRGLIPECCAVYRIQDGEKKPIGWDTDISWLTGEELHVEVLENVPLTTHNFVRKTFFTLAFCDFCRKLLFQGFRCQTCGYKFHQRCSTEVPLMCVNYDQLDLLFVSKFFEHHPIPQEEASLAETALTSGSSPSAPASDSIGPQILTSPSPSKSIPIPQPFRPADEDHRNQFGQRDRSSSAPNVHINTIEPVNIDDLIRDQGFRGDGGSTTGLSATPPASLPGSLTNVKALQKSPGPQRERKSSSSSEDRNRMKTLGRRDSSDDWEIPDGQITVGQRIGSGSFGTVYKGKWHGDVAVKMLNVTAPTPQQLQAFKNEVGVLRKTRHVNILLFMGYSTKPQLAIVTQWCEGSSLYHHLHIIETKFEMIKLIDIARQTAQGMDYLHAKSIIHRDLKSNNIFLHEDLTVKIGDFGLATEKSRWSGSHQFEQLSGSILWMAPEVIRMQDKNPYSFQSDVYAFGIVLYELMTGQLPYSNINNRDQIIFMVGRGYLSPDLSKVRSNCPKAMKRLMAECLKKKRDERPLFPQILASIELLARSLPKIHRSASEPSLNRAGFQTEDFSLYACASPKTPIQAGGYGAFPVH

- COMPOUND: "CCN(C)S(=O)(=O)Nc1ccc(F)c(Oc2ccc3ncc(C4COC5(CCN(C(=O)CN6CCC(c7ccc(NC8CCC(=O)NC8=O)cc7F)CC6)CC5)C4)nc3c2)c1C#N (stereo not drawn)"
  DC50 [nM]: 30.5
- COMPOUND: "CCN(C)S(=O)(=O)Nc1ccc(F)c(Oc2ccc3ncn(C4C5CN(C(=O)CN6CCC(c7ccc(NC8CCC(=O)NC8=O)cc7F)CC6)CC54)c(=O)c3c2)c1C#N (stereo not drawn)"
  DC50 [nM]: 34.8
- COMPOUND: "CCN(C)S(=O)(=O)Nc1ccc(F)c(Oc2ccc3ncn([C@@H]4COC5(CCN(C(=O)CN6CCC(c7ccc(NC8CCC(=O)NC8=O)cc7F)CC6)CC5)C4)c(=O)c3c2)c1C#N (single isomer, unassigned)"
  DC50 [nM]: 32.6
- COMPOUND: "CCN(C)S(=O)(=O)Nc1ccc(F)c(Oc2ccc3ncn([C@H]4CCC5(CCN(C(=O)CN6CCC(c7ccc8c(C9CCC(=O)NC9=O)nn(C)c8c7)C(F)(F)C6)CC5)C4)c(=O)c3c2)c1C#N (stereo partly drawn)"
  DC50 [nM]: 22.2
- COMPOUND: "CCN(C)S(=O)(=O)Nc1ccc(F)c(Oc2ccc3ncn([C@H]4COC5(CCN(C(=O)CN6CCC(c7ccc(C8CCC(=O)NC8=O)cc7F)CC6)CC5)C4)c(=O)c3c2)c1C#N (stereo partly drawn)"
  DC50 [nM]: 29.9
- COMPOUND: "CC(C)S(=O)(=O)Nc1ccc(F)c(Oc2ccc3ncn(-c4cnc(N5CCN(C(=O)CN6CCC(c7ccc(N[C@H]8CCC(=O)NC8=O)cc7F)CC6)CC5)nc4)c(=O)c3c2)c1C#N"
  DC50 [nM]: 6.47
